Entries below carry reported MIC on S. pneumoniae UNT-039, MP-627, TP1517 (mefA).

# annotated cases, reported MIC shown
• CCC[C@@H]1C[C@@H](C(=O)N[C@@H]([C@H]2O[C@H](SC)[C@H](O)[C@@H](O)[C@H]2O)[C@H](C)Cl)N(C)C1 [Clindamycin, clindamycin, reference compound] = ≤ 0.0313 µg/mL
• CSC1O[C@H]([C@H](NC(=O)[C@H]2NC[C@@H]3C[C@@H](c4ccccc4F)CCO[C@H]32)[C@H](C)Cl)C(O)[C@@H](O)[C@H]1O (stereo partly drawn) [FSA-511100] = 1 µg/mL
• CSC1O[C@H]([C@H](NC(=O)[C@H]2NC[C@@H]3CN(Cc4ccccc4)CCO[C@H]32)[C@H](C)Cl)C(O)[C@@H](O)[C@H]1O (stereo partly drawn) [FSA-502002] = 0.125 µg/mL
• CSC1O[C@H]([C@H](NC(=O)[C@H]2NC[C@@H]3CCCO[C@H]32)[C@H](C)Cl)C(O)[C@@H](O)[C@H]1O (stereo partly drawn) [FSA-24041] = ≤ 0.0313 µg/mL
• CSC1O[C@H]([C@H](NC(=O)[C@H]2NC[C@@H]3C=CCO[C@@H]23)[C@H](C)Cl)C(O)[C@@H](O)[C@H]1O (stereo partly drawn) [FSA-24039] = ≤ 0.0313 µg/mL

Consider now this further molecule.
Problem: Consider the molecule CSC1O[C@H]([C@H](NC(=O)[C@H]2NC[C@@H]3CC(F)(F)CCO[C@H]32)[C@H](C)Cl)C(O)[C@@H](O)[C@H]1O (stereo partly drawn) [FSA-24036] and give its measured MIC.
Solution: ≤ 0.0313 µg/mL

====

system: E. coli ATCC 25922; experiment: MIC determination; type: cell-based; details: Escherichia coli, ATCC25922, E. coli ATCC 25922; read-out: MIC
METRIC NAME: MIC

- COc1ccc([C@H]2CCO[C@@H]3[C@H](CN[C@@H]3C(=O)N[C@H]([C@H](C)Cl)[C@H]3OC(SC)[C@H](O)[C@H](O)C3O)C2)cc1 (stereo partly drawn) [FSA-512080b]: 128 µg/mL
- CSC1O[C@H]([C@H](NC(=O)[C@@H]2[C@@H]3OCCCC[C@H]3CN2C)[C@H](C)Cl)C(O)C(O)[C@H]1O (stereo partly drawn) [FSA-24040]: > 32 µg/mL
- CSC1O[C@H]([C@H](NC(=O)[C@H]2NC[C@@H]3C[C@@H](c4ccc(F)cc4)CCO[C@H]32)[C@H](C)Cl)C(O)[C@@H](O)[C@H]1O (stereo partly drawn) [FSA-507061]: 64 µg/mL
- CSC1O[C@H]([C@H](NC(=O)[C@H]2NC[C@@H]3C[C@H]4C[C@H]4CO[C@H]32)[C@H](C)Cl)C(O)C(O)[C@H]1O (stereo in doubt) [FSA-507007]: > 64 µg/mL
- CSC1O[C@H]([C@H](NC(=O)[C@H]2NC[C@@H]3C=C(c4cccc(F)c4)CCO[C@@H]23)[C@H](C)Cl)C(O)[C@@H](O)[C@H]1O (stereo partly drawn) [FSA-511071]: > 64 µg/mL
- COc1ccc(C2CCO[C@@H]3[C@H](CN[C@@H]3C(=O)N[C@H]([C@H](C)Cl)[C@H]3OC(SC)[C@H](O)C(O)C3O)C2)cc1 (stereo partly drawn) [FSA-511045]: > 64 µg/mL
- CSC1O[C@H]([C@H](NC(=O)[C@H]2NC[C@@H]3C[C@@H](CCc4cccc(F)c4)CCO[C@H]32)[C@H](C)Cl)C(O)[C@@H](O)[C@H]1O (stereo partly drawn) [FSA-510022]: 32 µg/mL
- CSC1O[C@H]([C@H](NC(=O)[C@H]2NC[C@@H]3CC(c4ccc(C#N)cc4)=CCO[C@H]32)[C@H](C)Cl)C(O)[C@@H](O)[C@H]1O (stereo partly drawn) [FSA-511033]: > 64 µg/mL
- CSC1O[C@H]([C@H](NC(=O)[C@@H]2[C@@H]3OCC=CC[C@H]3CN2C2CC2)[C@H](C)Sc2ccc(-c3cccnc3)cc2)C(O)C(O)[C@H]1O (stereo partly drawn) [FSA-214009a]: > 64 µg/mL
- CSC1O[C@H]([C@H](NC(=O)[C@H]2NC[C@@H]3C[C@@H](c4ccc(C)cc4)CCO[C@H]32)[C@H](C)Cl)C(O)[C@@H](O)[C@H]1O (stereo partly drawn) [FSA-512079b]: > 128 µg/mL

Problem: Consider the molecule CSC1O[C@H]([C@H](NC(=O)[C@H]2NC[C@@H]3C=C(c4ccc(C)cc4)CCO[C@@H]23)[C@H](C)Cl)C(O)[C@@H](O)[C@H]1O (stereo partly drawn) [FSA-512075] and give its measured MIC.
Solution: > 256 µg/mL

Problem: Consider the molecule CSC1O[C@H]([C@H](NC(=O)[C@H]2NC[C@@H]3C[C@H](c4ccc(C)cc4)CCO[C@H]32)[C@H](C)Cl)C(O)[C@@H](O)[C@H]1O (stereo partly drawn) [FSA-512079c] and give its measured MIC.
Solution: > 128 µg/mL

====

tested on: S. aureus Micromyx USA 300; assay: MIC determination; format: cell-based; settings: Staphylococcus aureus, USA300
METRIC NAME: MIC

* CSC1O[C@H]([C@H](NC(=O)[C@H]2NC[C@H]3CC=CCO[C@H]32)[C@H](C)Cl)C(O)[C@@H](O)[C@H]1O (stereo partly shown) [FSA-507051] | 16 µg/mL
* CSC1O[C@H]([C@H](NC(=O)[C@H]2NC[C@@H]3C=C(c4ccccc4)CCO[C@@H]23)[C@H](C)Cl)C(O)[C@@H](O)[C@H]1O (stereo partly shown) [FSA-507031] | > 32 µg/mL
* Cc1ccc(S(=O)(=O)OCC2O[C@H]([C@H](NC(=O)[C@H]3NC[C@@H]4CC=CCO[C@H]43)[C@@H](C)O)C(O)[C@@H](O)[C@H]2O)cc1 (stereo partly shown) [FSA-211030] | > 64 µg/mL

Problem: Query for S. aureus Micromyx USA 300: what MIC does the record show for C[C@@H](O)[C@@H](NC(=O)[C@H]1NC[C@@H]2CC=CCO[C@H]21)[C@H]1OC(CN=[N+]=[N-])[C@H](O)[C@H](O)C1O (stereo partly shown) [FSA-211064] ?
Solution: > 64 µg/mL

====

test system: E. faecalis ATCC 29212; experiment: MIC determination; assay type: cell-based; settings: Enterococcus faecalis, ATCC29212
METRIC NAME: MIC

- CSC1O[C@H]([C@H](NC(=O)[C@H]2NC[C@@H]3C[C@@H](O)[C@@H](O)CO[C@H]32)[C@H](C)Cl)C(O)[C@@H](O)[C@H]1O (stereo partly drawn): > 64 µg/mL
- Cc1ccc(S(=O)(=O)OCC2O[C@H]([C@H](NC(=O)[C@H]3NC[C@@H]4CC=CCO[C@H]43)[C@@H](C)O)C(O)[C@@H](O)[C@H]2O)cc1 (stereo partly drawn): > 64 µg/mL

Problem: Consider the compound CSC1O[C@H]([C@H](NC(=O)[C@H]2NC[C@H]3CC=CCO[C@H]32)[C@H](C)Cl)C(O)[C@@H](O)[C@H]1O (stereo partly drawn) and give its measured MIC.
Solution: > 32 µg/mL

Problem: Consider the compound CSC1O[C@H]([C@H](NC(=O)[C@H]2NC[C@@H]3CC(NCc4ccc(F)cc4)CCO[C@H]32)[C@H](C)Cl)C(O)[C@@H](O)[C@H]1O (stereo partly drawn) and give its measured MIC.
Solution: > 64 µg/mL

Problem: Consider the compound CSC1O[C@H]([C@H](NC(=O)[C@H]2NC[C@@H]3CC(NCc4cccc(F)c4)CCO[C@H]32)[C@H](C)Cl)C(O)[C@@H](O)[C@H]1O (stereo partly drawn) and give its measured MIC.
Solution: > 64 µg/mL

Problem: Consider the compound CSC1O[C@H]([C@H](NC(=O)[C@H]2NC[C@@H]3CC(NC4CC4)CCO[C@H]32)[C@H](C)Cl)C(O)[C@@H](O)[C@H]1O (stereo partly drawn) and give its measured MIC.
Solution: > 64 µg/mL

Problem: Consider the compound CSC1O[C@H]([C@H](NC(=O)[C@H]2NC[C@@H]3C=C(c4ccccc4)CCO[C@@H]23)[C@H](C)Cl)C(O)[C@@H](O)[C@H]1O (stereo partly drawn) and give its measured MIC.
Solution: > 32 µg/mL

Problem: Consider the compound CSC1O[C@H]([C@H](NC(=O)[C@H]2NC[C@@H]3C[C@H]4OC(C)(C)O[C@H]4CO[C@H]32)[C@H](C)Cl)C(O)[C@@H](O)[C@H]1O (stereo partly drawn) and give its measured MIC.
Solution: > 64 µg/mL

Problem: Consider the compound CSC1O[C@H]([C@H](NC(=O)[C@H]2NC[C@@H]3CC(NCc4ccccc4F)CCO[C@H]32)[C@H](C)Cl)C(O)C(O)[C@H]1O (stereo partly drawn) and give its measured MIC.
Solution: > 64 µg/mL

Problem: Consider the compound CNC1CCO[C@@H]2[C@H](CN[C@@H]2C(=O)N[C@H]([C@H](C)Cl)[C@H]2OC(SC)[C@H](O)[C@H](O)C2O)C1 (stereo partly drawn) and give its measured MIC.
Solution: > 64 µg/mL

Problem: Consider the compound CSC1O[C@H]([C@H](NC(=O)[C@H]2NC[C@@H]3CC(N)CCO[C@H]32)[C@H](C)Cl)C(O)[C@@H](O)[C@H]1O (stereo partly drawn) and give its measured MIC.
Solution: > 64 µg/mL

Problem: Consider the compound C[C@@H](O)[C@@H](NC(=O)[C@H]1NC[C@@H]2CC=CCO[C@H]21)[C@H]1OC(CN=[N+]=[N-])[C@H](O)[C@H](O)C1O (stereo partly drawn) and give its measured MIC.
Solution: > 64 µg/mL

Values from patent US11767341B2
